Test system: K-562 leukemia
Test: NCI tumour cell line growth inhibition, 48 h
Would you kindly list TGI for each of these compounds?
One number for each entry, in µM.

Examples with their reported TGI follow.
>  <SMILES REPR>
COC(=O)[C@@H](C)C[C@H](Cc1ccc2ccccc2c1)NC(=O)c1csc([C@@H](C[C@H](C(C)C)N(C)C(=O)[C@@H](NC(=O)[C@H]2CCCCN2C)C(C)C)OC(C)=O)n1

>  <UNIT SPEC>
µM

>  <TGI>
8.76

$$$$
>  <SMILES REPR>
O=c1cc(-c2ccccc2)c2ccc(O)c(CN(CCCl)CCCl)c2o1

>  <UNIT SPEC>
µM

>  <TGI>
91.5

$$$$
>  <SMILES REPR>
CC1=C2O[C@]3(O)C=C2C(=C(O)C1=O)[C@@H]1O[C@H](CC[C@H](C)/C=C(\C)C[C@@H](C)C[C@@H]3C)[C@H](C)[C@H](O)[C@H]1C

>  <UNIT SPEC>
µM

>  <TGI>
4.87

$$$$

In the following, a different compound is considered.
### Prompt GET /values?readout=TGI&item= Cn1ncc(NC(=O)c2nc(-c3c(F)cccc3F)sc2N)c1N1CC[C@@H](N)[C@H](F)CC1
### Response 28

---

Would you kindly list TGI for each of these molecules?
Tested on: SN12C renal
Assay: NCI tumour cell line growth inhibition, 48 h
Numbers only, in µM.

Examples with their reported TGI follow.
>  <MOLECULE>
CCOC(=O)C1C(=O)C=C(c2cc(C)ccc2O)CC1c1cccc(Cl)c1 (stereo unspecified)

>  <ASSAY VALUE>
95.9

$$$$
>  <MOLECULE>
COc1cc(-c2ccc(-c3ccc(C(=N)N)cc3)s2)cc(OC)c1OC

>  <ASSAY VALUE>
18.8

$$$$
>  <MOLECULE>
CCO/C=N/C1=C(C#N)C(c2ccc(OC)cc2)c2sc3c(F)cccc3c2O1 (stereo unspecified)

>  <ASSAY VALUE>
55

$$$$
>  <MOLECULE>
CC12CP(=O)(c3ccccc3)CC1c1ccccc1C2c1ccccc1 (stereo unspecified)

>  <ASSAY VALUE>
32.2

$$$$

### Prompt GET /values?readout=TGI&item= O=C1C=CC(=O)c2cc3cc(CO)ccc3cc21
### Response 15.8

---

Test system: K-562 leukemia
Assay: NCI tumour cell line growth inhibition, 48 h
Would you kindly list GI50 for each of these compounds?

Examples with their reported GI50 follow.
>  <SMILES REPR>
COc1cc(-c2ccc(-c3ccc(C(=N)N)cc3)s2)cc(OC)c1OC

>  <SYSTEM>
K-562 leukemia

>  <ASSAY VALUE>
2630 nM

$$$$
>  <SMILES REPR>
O=C1C=CC(=O)c2cc3cc(CO)ccc3cc21

>  <SYSTEM>
K-562 leukemia

>  <ASSAY VALUE>
1060 nM

$$$$
>  <SMILES REPR>
c1ccc([P+](c2ccccc2)(c2ccccc2)c2ccc3c4ccc([P+](c5ccccc5)(c5ccccc5)c5ccccc5)c5cccc(c6cccc2c63)c54)cc1

>  <SYSTEM>
K-562 leukemia

>  <ASSAY VALUE>
506 nM

$$$$
>  <SMILES REPR>
C#CCn1cnc2cnc(Nc3cccc(NC(=O)CCl)c3)nc21

>  <SYSTEM>
K-562 leukemia

>  <ASSAY VALUE>
23700 nM

$$$$

// each listed compound needs a value for GI50
1. Nc1nc(N)c(N=Nc2ccccc2)c(-c2ccccc2)n1
2. CS(=O)(=O)O[C@H]1C(=O)N(c2cc3c4ccccc4ccc3c3ccccc23)[C@@H]1c1ccccc1
3. [N-]=[N+]=NCCCn1c2c(c3cc4c(cc3c1=O)OCO4)C(=O)c1ccccc1-2
4. COc1ccc(-c2cc(-c3ccccc3)nc(SCCCC(=O)NO)n2)cc1OC
5. Cn1ncc(NC(=O)c2nc(-c3c(F)cccc3F)sc2N)c1N1CC[C@@H](N)[C@H](F)CC1

### Response
1: 10300 nM; 2: 731 nM; 3: 28700 nM; 4: 812 nM; 5: 3450 nM

---

Test system: KM12 colon
Test: NCI tumour cell line growth inhibition, 48 h
Would you kindly list TGI for each of these compounds?

// each listed compound needs a value for TGI
1. COc1cc2c3c(n(CCCNCCNCCN)c(=O)c2cc1OC)-c1cc2c(cc1C3=O)OCO2
2. c1ccc(C2(c3ccccc3)SSC3(S2)C2CC4CC(C2)CC3C4)cc1 (stereo unspecified)

### Response
["17.8 µM", "> 100 µM"]

---

Test system: SK-OV-3 ovarian
Experiment: NCI tumour cell line growth inhibition, 48 h; in the data active = GI50 below about 0.43 µM; inactive = the rest
Thanks in advance; please answer with one of these: class 1 = active, class 0 = inactive

Study these solved cases before continuing.
>  <COMPOUND>
c1cc2c(s1)SSSSS2

>  <ASSIGNED LABEL>
class 0

$$$$
>  <COMPOUND>
NCCCOc1cc2ccccc2cc1C(=O)NCCOc1nc2ccccc2cc1C(=O)Nc1ccc(Cl)cc1O

>  <ASSIGNED LABEL>
class 0

$$$$
>  <COMPOUND>
c1ccc2cc(C[n+]3ccn(CCCCCCCCCCCCn4cc[n+](Cc5ccc6ccccc6c5)c4)c3)ccc2c1

>  <ASSIGNED LABEL>
class 0

$$$$

### Prompt Call for entry COc1ccc(-c2cc(-c3ccccc3)nc(SCCCC(=O)NO)n2)cc1OC :
### Response class 0

### Prompt Then this compound: Nc1nonc1C(=Nc1ccc(F)c(Cl)c1)NO
### Response class 0

### Prompt Then this compound: NCCCCCCCCCCn1c2c(c3ccccc3c1=O)C(=O)c1ccccc1-2
### Response class 0

### Prompt Then this compound: Nc1nc(N)c(N=Nc2ccccc2)c(-c2ccccc2)n1
### Response class 0

### Prompt Then this compound: COc1cc2c3c(n(CCCNCCNCCN)c(=O)c2cc1OC)-c1cc2c(cc1C3=O)OCO2
### Response class 0

---

Tested on: MCF7 breast
Experiment: NCI tumour cell line growth inhibition, 48 h
Would you kindly list TGI for each of these molecules?

Examples with their reported TGI follow.
>  <MOLECULE>
Cc1nn(C(=O)c2ccccc2O)c2c1C(c1ccc3ccccc3c1O)SC(N)=N2 (stereo not drawn)

>  <TGI>
7.32 µM

$$$$
>  <MOLECULE>
O=C(COc1nc2ccccc2nc1-c1ccccc1)Nc1ccc(Cl)cc1

>  <TGI>
> 100 µM

$$$$

In the following, a different molecule is considered.
### Prompt GET /values?readout=TGI&item= CC12CP(=O)(c3ccccc3)CC1c1ccccc1C2c1ccccc1 (stereo not drawn)
### Response > 100 µM

---

Tested on: RPMI-8226 leukemia
Assay: NCI tumour cell line growth inhibition, 48 h
Parameter threshold = 20 µM. Response is TRUE when TGI meets or exceeds it, else FALSE.

Study these solved cases before continuing.
>  <COMPOUND>
COc1cc(/C=N/n2c(-c3ccccc3)n[nH]c2=O)cc(OC)c1OC

>  <ASSIGNED LABEL>
TRUE

$$$$
>  <COMPOUND>
O=C(c1ccc(Cl)cc1)c1no[n+]([O-])c1C(=O)c1ccc(Cl)cc1

>  <ASSIGNED LABEL>
TRUE

$$$$
>  <COMPOUND>
Cc1ccc(O)c(-c2cc(-c3cccc(Br)c3)on2)c1

>  <ASSIGNED LABEL>
TRUE

$$$$
>  <COMPOUND>
COC(=O)/C(=N\NC(=O)c1ccccc1O)C(C#N)c1ccccc1 (stereo unspecified)

>  <ASSIGNED LABEL>
TRUE

$$$$
>  <COMPOUND>
COc1ccc(/C=C/C(=O)c2cc3c(N)c(C(=O)Nc4cccc(Cl)c4C)sc3nc2C)cc1

>  <ASSIGNED LABEL>
FALSE

$$$$
>  <COMPOUND>
CC1CCC(=O)NCCCCC(=O)N1 (stereo unspecified)

>  <ASSIGNED LABEL>
TRUE

$$$$
>  <COMPOUND>
COC(=O)[C@@H](C)C[C@H](Cc1ccc2ccccc2c1)NC(=O)c1csc([C@@H](C[C@H](C(C)C)N(C)C(=O)[C@@H](NC(=O)[C@H]2CCCCN2C)C(C)C)OC(C)=O)n1

>  <ASSIGNED LABEL>
FALSE

$$$$
>  <COMPOUND>
CNC(=O)NCC1OC(n2cnc3c(NC(=O)Nc4ccccc4)ncnc32)C(O[Si](C)(C)C(C)(C)C)C1CC(=O)N(C)OC (stereo unspecified)

>  <ASSIGNED LABEL>
FALSE

$$$$
>  <COMPOUND>
CCOC(=O)c1csc(NC(=O)CN(C)C)n1

>  <ASSIGNED LABEL>
TRUE

$$$$
>  <COMPOUND>
[N-]=[N+]=Nc1c(Cc2ccccc2)c(=O)oc2ccccc12

>  <ASSIGNED LABEL>
TRUE

$$$$

### Prompt In plain terms: is recorded TGI at least 20 µM for CN(C)CCNc1ccc2nnn3c4ccccc4c(=O)c1c23 ?
### Response TRUE

### Prompt Then this compound: CC(N)Cc1ccc(F)cc1 (stereo unspecified)
### Response TRUE
